target or test system: T1, human CD115 extracellular domain (Sino Biological 10161-H08H) (human, UniProt P07333 20-517)
T1 construct: extracellular domain; bought recombinant protein; also called huCD115; hu-CD115
test details: competition ELISA, competitor TMR 95A;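 further: clonal anti-huCD115 hybridoma supernatants tested for binding while a competitor mouse antibody is present, where failure to bind assigns them to that competitor's epitope bin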;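 further: low signal means same epitope bin as the mouse competitor antibody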
I'd appreciate it if you could supply signal vs NO COMP=100 values for the items below.
Number plus unit, in that order.

Below is a list of binders. For each, state its recorded signal vs NO COMP=100.
1. CCK-424A (antibody, V domains shown, AlivaMab chimeric IgG, human kappa LC) VH: QVQLQESGPGLVKPSETLSLTCTVSGGSISSYYWSWIRQPPGKVLEWIGYFSYNGNTNYNPSLKSRVTISVDTSKNQFSLKLSSVTAADTAVYYCTRGMDVWGQGTTVTVSS VL: DIQMTQSPSTLSASVGDRVTITCRASQSISDWLAWYLQKPGKAPKLLIYKASSLESGVPSRFSGSGSGTAFTLTISSLQPDDFATYYCQQYNSHWTFGQGTKVEIK
2. CCK-417A (antibody, V domains shown, AlivaMab chimeric IgG, human kappa LC) VH: QVTLRESGPALVKPTQTLTLTCTFSGFSLSTSGMCVSWIRQPPGKALECLALIDWDDDKYYSTSLKTRLTISKDTSKNQVVLTMTNMDPVDTATYYCARTQLGIADYWGQGTLVTVSS VL: AIRMTQSPSSFSASTGDRVTITCRASQGISSYLAWYQQKPGKAPKLLIYAASTLQSGVPSRFSGSGSGTDFTLTISCLQSEDFATYYCQQYYSYPFTFGPGTKVDIK
3. CCK-465A (antibody, V domains shown, AlivaMab chimeric IgG, human kappa LC) VH: QVQLQESGPGLVKPSETLSLSCTVSGGSISSYYWSWIRQPAGKGLEWIGRIYTSGSTNYNPSLKSRVTMSVDTSKNQFSLKLSSVTAADTAVYYCARDRSFYGMDVWGQGTTVTVSS VL: DIQMTQSPSSLSASVGDRVTITCRASQGFSNYLAWYQQKPGKVPKLLIYAASTLQSGVPSRFSGSGSGTDFTLTISSLQPEDVATYYCQKYNSAPLTFGGGTKVEIK

Response:
16%
3%
41%

Values from patent US20180258175A1
